- targetDesc: human HSD1 (recombinant HSD1) (Homo sapiens, UniProt P28845)
- Sequence (P28845 whole entry): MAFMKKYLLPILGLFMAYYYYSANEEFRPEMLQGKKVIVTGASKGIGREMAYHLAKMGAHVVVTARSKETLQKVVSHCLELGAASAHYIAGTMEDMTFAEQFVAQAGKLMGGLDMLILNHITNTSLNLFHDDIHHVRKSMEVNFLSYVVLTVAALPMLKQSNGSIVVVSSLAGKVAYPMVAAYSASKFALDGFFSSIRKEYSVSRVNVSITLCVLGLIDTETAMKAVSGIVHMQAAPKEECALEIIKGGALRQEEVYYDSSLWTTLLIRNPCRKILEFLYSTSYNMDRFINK
- assayText: In vitro HSD1 activity inhibitory action, SPA of cortisone to cortisol conversion
- studyConditions: recombinant human HSD1 0.1 μg/ml, 500 μM NADPH, 16 nM 3H cortisone, room temperature 90 min, read-out: hHSD1 IC50
pIC50: −log10 of the molar value.
readoutType: pIC50

1. COC(=O)c1cccc(OC2CCN(c3nnc(C4(c5ccccc5)CC4)n3C)CC2)c1
> 8.00
2. CN(c1ccccc1)c1nnc(C2(c3ccc(F)cc3)CC2)n1C
> 8.00
3. Cn1c(N2CCC(Oc3ccc(F)cc3)CC2)nnc1C1(c2ccccc2)CC1
> 8.00
4. Cn1c(-c2ccc(C(=O)NCC(N)=O)cc2Cl)nnc1C1(c2ccccc2)CC1
> 8.00
5. CC(=O)Nc1ccc(-c2nnc(C3(c4ccc(F)cc4)CC3)n2C)c(Cl)c1
> 8.00
6. Cn1c(-c2ccc(N3CCC(C(=O)NCC(F)(F)F)CC3)cc2Cl)nnc1C1(c2ccccc2)CC1
> 8.00
7. Cn1c(-c2ccc(C(=O)N3CCC(O)CC3)cc2Cl)nnc1C1(c2ccccc2)CC1
6.00 to 8.00
8. CC(C)C(=O)N1CCN(c2ccc(-c3nnc(C4(c5ccccc5)CC4)n3C)c(Cl)c2)CC1
> 8.00
9. Cn1c(N2CCC(CO)CC2)nnc1C1(c2ccccc2)CC1
> 8.00
10. COc1ccc(C2(c3nnc(N4CCC(Oc5ncc(Cl)cc5Cl)CC4)n3C)CC2)cc1
6.00 to 8.00
11. Cn1c(-c2ccc(Cl)cc2[N+](=O)[O-])nnc1C1(c2ccccc2)CC1
> 8.00
12. COCC(=O)Nc1ccc(-c2nnc(C3(c4ccccc4)CC3)n2C)c(Cl)c1
> 8.00
13. CC(C)n1c(-c2ccc(C(N)=O)cc2)nnc1C1(c2ccccc2)CC1
> 8.00

* * *

- targetDesc: human HSD1 (recombinant HSD1) (Homo sapiens)
- assayText: In vitro HSD1 activity inhibitory action, SPA of cortisone to cortisol conversion
- studyConditions: recombinant human HSD1 0.1 μg/ml, 500 μM NADPH, 16 nM 3H cortisone, room temperature 90 min, read-out: hHSD1 IC50
readoutType: IC50

1) COCCNC(=O)c1ccc(-c2nnc(C3(c4ccccc4)CC3)n2C)c(Cl)c1
0.01 to 1 µM
2) CN(C)C(=O)C1CCN(c2ccc(-c3nnc(C4(c5ccccc5)CC4)n3C)c(Cl)c2)CC1
< 0.01 µM
3) CCCC(=O)Nc1ccc(-c2nnc(C3(c4ccccc4)CC3)n2C)c(Cl)c1
< 0.01 µM
4) CN(C)C(=O)c1ccc(-c2nnc(C3(c4ccccc4)CC3)n2C)c(Cl)c1
0.01 to 1 µM
5) CC(C)n1c(-c2cccc(C(N)=O)c2)nnc1C1(c2ccc(F)cc2)CC1
< 0.01 µM

* * *

- targetDesc: human HSD1 (recombinant HSD1) (Homo sapiens)
- assayText: In vitro HSD1 activity inhibitory action, SPA of cortisone to cortisol conversion
- studyConditions: recombinant human HSD1 0.1 μg/ml, 500 μM NADPH, 16 nM 3H cortisone, room temperature 90 min, read-out: hHSD1 IC50
Overview of recorded IC50 for various compounds
readoutType: IC50

1) Cc1ccc(C2(c3nnc(N4CCC(Oc5ncc(Cl)cc5Cl)CC4)n3C)CC2)cc1
10 to 1000 nM
2) COC1CCN(C(=O)Nc2ccc(-c3nnc(C4(c5ccccc5)CC4)n3C)c(Cl)c2)CC1
10 to 1000 nM
3) Cn1c(N2CCC(c3ccccc3)CC2)nnc1C1(c2ccccc2)CC1
< 10 nM
4) Cn1c(N2CCC(Oc3cccc(C(=O)O)c3)CC2)nnc1C1(c2ccccc2)CC1
10 to 1000 nM
5) Cn1c(N2CCC(C(F)(F)F)CC2)nnc1C1(c2ccccc2)CC1
< 10 nM
6) Cn1c(-c2ccc(N3CCC(O)CC3)cc2Cl)nnc1C1(c2ccccc2)CC1
< 10 nM
7) Cn1c(C2CCN(c3ncccc3Cl)CC2)nnc1C1(c2ccccc2)CC1
< 10 nM
8) Cn1c(-c2ccc(F)cc2Cl)nnc1C1(c2ccccc2)CC1
< 10 nM
9) COC(=O)C1CCN(c2nnc(C3(c4ccccc4)CC3)n2C)CC1
10 to 1000 nM
10) Cn1c(-c2ccc(C(N)=O)cc2Cl)nnc1C1(c2ccccc2)CC1
< 10 nM
11) Cn1c(-c2ccc(OCCN)cc2Cl)nnc1C1(c2ccccc2)CC1
10 to 1000 nM
12) Cn1c(N2CCC(NC(=O)c3ccc(Cl)cc3Cl)CC2)nnc1C1(c2ccccc2)CC1
10 to 1000 nM
13) CN(c1ccc(Cl)cc1)c1nnc(C2(c3ccccc3)CC2)n1C
< 10 nM
14) CN(C)CC(=O)Nc1ccc(-c2nnc(C3(c4ccccc4)CC3)n2C)c(Cl)c1
< 10 nM
15) CC(C)n1c(-c2ccc(Cl)cc2)nnc1C1(c2ccc(F)cc2)CC1
< 10 nM
16) Cn1c(-c2ccc(C(=O)NCC(F)(F)F)cc2Cl)nnc1C1(c2ccccc2)CC1
10 to 1000 nM
